Test system: acutely dissociated and purified rat OPCs
ASSAY_COMMENT: Acute OL differentiation assay (MBP expression/cell, immunofluorescent image quantification)
Type: cell-based
EXPERIMENTAL_SETUP: Rattus norvegicus, test compound at 2 uM; MBP expression relative to quetiapine; NCC library screen, sheet "All OLga data"; read-out: 2 uM (% Quet)
Values of activation at 2 µM greater than or equal to -10% map to Condition met; values below map to Condition not met.

// below: answered compounds
>  <COMPOUND>
C[N+]1(C)CCC(OC(=O)C(O)(c2ccccc2)C2CCCC2)C1 (centres unmarked) [Glycopyrrolate]

>  <CLASS>
Condition met

$$$$
>  <COMPOUND>
CCOC(=O)[C@H](CCc1ccccc1)N[C@@H](C)C(=O)N1Cc2ccccc2C[C@H]1C(=O)O [Quinapril]

>  <CLASS>
Condition met

$$$$

Tell me whether activation at 2 µM is at least -10% here: COc1c2occc2cc2ccc(=O)oc12 [Methoxsalen]
Condition not met

Form field: activation at 2 µM at least -10%? Entry: CC1(C)S[C@@H]2[C@H](NC(=O)COc3ccccc3)C(=O)N2[C@H]1C(=O)O [Penicillin V]
Condition met

Does activation at 2 µM meet or surpass -10% for Nc1ncn([C@@H]2O[C@H](CO)[C@@H](O)[C@H]2O)c(=O)n1 [Azacitidine] ?
Condition not met

----------
System: expanded OPCs
ASSAY_COMMENT: cells
EXPERIMENTAL_SETUP: alamarBlue viability of expanded OPCs, compound at 0.1 µM, relative to DMSO control
Source text: Having established a consistent assay for measuring OL differentiation in vitro, the next step was to utilize this assay to assess the ability of a wide array of compounds to promote OL differentiation. Prior to library screening, we first established the maximum non-toxic dose of each compound in the library. […] Three days later, we assessed viability of the treated cells by measuring AlamarBlue fluorescence, a measure of cell viability (see “Methods” section). […]
READOUT_TYPE: 0.1 µM (% DMSO)
Give a bare numeral; the unit % DMSO is implied.

>  <COMPOUND>
NC(Cc1cc(I)c(Oc2cc(I)c(O)c(I)c2)c(I)c1)C(=O)O (stereo not drawn) [thyroxine, reference compound]

>  <0.1 µM (% DMSO)>
212.0

$$$$
>  <COMPOUND>
C[C@H]1C[C@@H]2[C@H]([C@@H](O)C[C@@]3(C)[C@H]2CC[C@]3(O)C(=O)CO)[C@@]2(C)C=CC(=O)C=C12

>  <0.1 µM (% DMSO)>
115.7

$$$$
>  <COMPOUND>
COc1cc(NC(C)CCCN)c2ncccc2c1 (stereo not drawn)

>  <0.1 µM (% DMSO)>
90.1

$$$$
>  <COMPOUND>
Oc1c(Cl)cc(Cl)c2cccnc12

>  <0.1 µM (% DMSO)>
24.3

$$$$
>  <COMPOUND>
CO[C@H]1/C=C/O[C@@]2(C)Oc3c(C)c(O)c4c(c3C2=O)C2=NC3(CCN(CC(C)C)CC3)NC2=C(NC(=O)/C(C)=C\C=C\[C@H](C)[C@H](O)[C@@H](C)[C@@H](O)[C@@H](C)[C@H](OC(C)=O)[C@@H]1C)C4=O

>  <0.1 µM (% DMSO)>
95.3

$$$$

Using known records, supply 0.1 µM (% DMSO) for C=C(CC)C(=O)c1ccc(OCC(=O)O)c(Cl)c1Cl
90.2

Return value of 0.1 µM (% DMSO) for input CCOC(=O)[C@H](CCc1ccccc1)N[C@@H](C)C(=O)N1Cc2ccccc2C[C@H]1C(=O)O , no commentary.
95.3
